Test system: normal primary NK cells, pool 1 (3 donors) (IL-2 2.5 ng/mL)
Assay: percent inhibition of viability; higher = more inhibition;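 also: normalised to DMSO-only wells as negative and benzethonium chloride as positive control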
Conditions: 72 h; 10 nM
Recorded percent inhibition of viability, one value per entry.

| compound | unit descriptor | percent inhibition of viability |
| --- | --- | --- |
| Nc1nc(Cl)nc2c1ncn2[C@H]1C[C@H](O)[C@@H](CO)O1 [Cladribine] (max concentration tested 1000 nM) | % | 23.2 |
| C=C1C[C@@H]2[C@H](CC[C@]3(C)C(=O)CC[C@@H]23)[C@@]2(C)C=CC(=O)C=C12 [Exemestane] (max concentration tested 10000 nM) | % | -4.6 |
| CC1(C)CNc2cc(NC(=O)c3cccnc3NCc3ccncc3)ccc21 [Motesanib] (max concentration tested 10000 nM) | % | 3.71 |

----------
Test system: KHYG-1 (IL-2 2.5 ng/mL)
Test: percent inhibition of viability; higher = more inhibition
Details: 72 h; 1000 nM
# percent inhibition of viability values compiled below

| compound | percent inhibition of viability (%) |
| --- | --- |
| Clc1ccc(C(c2ccccc2Cl)C(Cl)Cl)cc1 (stereo unspecified) [Mitotane] (max concentration tested 10000 nM) | -7.76 |
| CCn1cc(-c2ccnc3[nH]c(-c4cccc(CN(C)C)c4)cc23)c(-c2ccc(NC(=O)N(C)C)cc2)n1 (max concentration tested 1000 nM) | 54 |
| Cc1sc2c(c1C)C(c1ccc(Cl)cc1)=N[C@@H](CC(=O)OC(C)(C)C)c1nnc(C)n1-2 [(+)JQ1] (max concentration tested 10000 nM) | 89.8 |
| CC(C)(C)c1cnc(CSc2cnc(NC(=O)C3CCNCC3)s2)o1 [SNS-032] (max concentration tested 10000 nM) | 102 |
| Nc1cc(C(F)(F)F)c(-c2cc(N3CCOCC3)nc(N3CCOCC3)n2)cn1 [Buparlisib] (max concentration tested 10000 nM) | 57.9 |
| CCc1cncnc1N1CCN(Cc2nc3ccc(C(F)(F)F)cc3[nH]2)CC1 (max concentration tested 10000 nM) | 17.2 |
| C=CCc1cccc(/C=N/NC(=O)CN2CCN(Cc3ccccc3)CC2)c1O [PAC-1] (max concentration tested 10000 nM) | 74.1 |
| CCn1c(=O)c(-c2cc[nH]n2)cc2c(C)nc(N)nc21 [Voxtalisib] (max concentration tested 10000 nM) | 17.8 |
| CC(=O)O[C@H]1C(=O)[C@@]2(C)[C@H]([C@H](OC(=O)c3ccccc3)[C@]3(O)C[C@H](OC(=O)[C@H](O)[C@@H](NC(=O)c4ccccc4)c4ccccc4)C(C)=C1C3(C)C)[C@]1(OC(C)=O)CO[C@@H]1C[C@@H]2O [Paclitaxel] (max concentration tested 1000 nM) | 99.2 |
| COCC[n+]1c2c(n(Cc3cnccn3)c1C)C(=O)c1ccccc1C2=O [YM155] (max concentration tested 10000 nM) | 106 |
| CN1CCC(COc2cnc(-c3cccc(Cn4nc(-c5cccc(C#N)c5)ccc4=O)c3)nc2)CC1 (max concentration tested 1000 nM) | 15.3 |
| COc1cc2nccc(Oc3ccc(NC(=O)Nc4cc(C)on4)c(Cl)c3)c2cc1OC [Tivozanib] (max concentration tested 10000 nM) | 11.4 |
| COc1cccc2cc(-c3nc([C@H]4CC[C@H](C(=O)O)CC4)n4ncnc(N)c34)[nH]c12 [OSI-027] (max concentration tested 10000 nM) | 18.4 |
| COc1cc(N2CCC(N3CCN(C)CC3)CC2)ccc1Nc1ncnc(Nc2ccccc2S(=O)(=O)C(C)C)n1 [ASP3026] (max concentration tested 10000 nM) | 10.2 |
| Oc1ncnc2[nH]ncc12 [Allopurinol] (max concentration tested 10000 nM) | -3.66 |
| Cc1ccc(F)c(NC(=O)Nc2ccc(-c3cccc4[nH]nc(N)c34)cc2)c1 [Linifanib] (max concentration tested 1000 nM) | 5.26 |
